test: Cytotoxicity against human OVACR3 cells; type: functional, cell-based
property_name: IC50 (nM)
Answers are plain numbers, in nM.

>>> df
                      sample_smiles  property_name  unit_name  endpoint_result
0  C[n+]1c2ccccc2cc2[nH]c3ccccc3c21           IC50         nM              500

Now look at this one.
So for `CC(=O)n1c2ccccc2c2c1cc1ccccc1[n+]2C.[Cl-]` , the logged IC50 turned out to be 500
